- EXPERIMENTAL SYSTEM: AM2 receptor (CALCRL+RAMP3) (Homo sapiens, UniProt O60896+Q16602)
- Construct: host or cells: 1321N1
- Sequence (Q16602 23-461): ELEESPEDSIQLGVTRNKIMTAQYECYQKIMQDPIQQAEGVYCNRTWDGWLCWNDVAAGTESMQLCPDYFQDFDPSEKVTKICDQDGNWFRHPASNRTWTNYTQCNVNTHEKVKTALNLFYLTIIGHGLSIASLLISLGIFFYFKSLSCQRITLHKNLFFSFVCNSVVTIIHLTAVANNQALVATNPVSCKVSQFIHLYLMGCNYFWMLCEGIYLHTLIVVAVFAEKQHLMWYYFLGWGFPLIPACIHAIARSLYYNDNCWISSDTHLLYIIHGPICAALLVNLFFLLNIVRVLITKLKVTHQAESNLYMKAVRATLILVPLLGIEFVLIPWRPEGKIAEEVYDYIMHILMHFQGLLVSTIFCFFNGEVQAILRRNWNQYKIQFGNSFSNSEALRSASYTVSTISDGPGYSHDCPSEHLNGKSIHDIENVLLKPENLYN
- Sequence (O60896 24-148): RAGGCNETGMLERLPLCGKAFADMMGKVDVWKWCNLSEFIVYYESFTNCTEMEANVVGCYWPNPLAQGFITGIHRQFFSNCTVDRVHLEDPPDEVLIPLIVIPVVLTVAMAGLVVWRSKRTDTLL
- ASSAY METHOD TEXT: AM2 receptor inhibition, LANCE TR-FRET cAMP agonist-antagonist competition assay
- Format: cell-based
- EXPERIMENTAL SETUP: inhibition of AM induced cAMP activation; 1321N1 cells transfected with CALCRL+RAMP3; read-out: AM2 pIC50 (converted)
ASSAY ENDPOINT: IC50 (nM)

I. CNCc1ccccc1CN(CC(=O)Nc1ccc2c(c1)CC1(C2)C(=O)Nc2ncccc21)C(=O)c1ncsc1C (stereo not shown)
II. O=C(CN(Cc1ccccc1CN1CCC1)C(=O)c1ccccc1)Nc1ccc2c(c1)CC1(C2)C(=O)Nc2ncccc21 (stereo not shown)
III. CC(C)(C)C(=O)N(CC(=O)Nc1ccc2c(c1)CC1(C2)C(=O)Nc2ncccc21)Cc1ccccc1CNCCF (stereo not shown)
IV. CNCc1ccccc1CN(CC(=O)Nc1ccc2c(c1)CC1(C2)C(=O)Nc2ncccc21)C(=O)C1(C(F)(F)F)CC1 (stereo not shown) [Example 75, 2,2,2-trifluoroacetate]
Inquiry: Hey, can you sort those compounds up there by IC50, smallest first? Show the ranking through the labels, in the order asked for.
Reply text: IV, III, I, II

---

- EXPERIMENTAL SYSTEM: AM2 receptor (CALCRL+RAMP3) (Homo sapiens, UniProt O60896+Q16602)
- Construct: host or cells: 1321N1
- ASSAY METHOD TEXT: AM2 receptor inhibition, LANCE TR-FRET cAMP agonist-antagonist competition assay
- Format: cell-based
- EXPERIMENTAL SETUP: inhibition of AM induced cAMP activation; 1321N1 cells transfected with CALCRL+RAMP3; read-out: AM2 pIC50 (converted)
Where a name gives a salt, the structure may show the parent alone.
ASSAY ENDPOINT: IC50 (nM)

{"columns": ["COMPOUND", "IC50 (nM)"],
 "data": [
  ["CC(C)(C)C(=O)N(CC(=O)Nc1ccc2c(c1)CC1(C2)C(=O)Nc2ncccc21)Cc1ccccc1CN1CCCC1 (stereo not drawn)", 60.3],
  ["CNCc1ccccc1CN(CC(=O)Nc1ccc2c(c1)CC1(C2)C(=O)Nc2ncccc21)C(=O)C1CCNCC1 (stereo not drawn)", 148]
]}

a. CCC1(C(=O)N(CC(=O)Nc2ccc3c(c2)C[C@@]2(C3)C(=O)Nc3ncccc32)Cc2ccccc2CNC)CCOCC1 [Example 98, trifluoroacetate]
b. CC(c1ccccc1CN(CC(=O)Nc1ccc2c(c1)CC1(C2)C(=O)Nc2ncccc21)C(=O)C(C)(C)C)N1CCC1 (stereo not drawn)
c. CNCc1ccccc1CN(CC(=O)Nc1ccc2c(c1)CC1(C2)C(=O)Nc2ncccc21)C(=O)C1(C(F)(F)F)CCC1 (stereo not drawn) [Example 76, 2,2,2-trifluoroacetate]
Inquiry: Sort the 3 compounds by IC50; largest first, smallest last. Show the ranking through the labels, in the order asked for.
Reply text: b, a, c
(b: 75.9 nM, a: 21.4 nM, c: 1.35 nM)

---

- EXPERIMENTAL SYSTEM: AM2 receptor (CALCRL+RAMP3) (Homo sapiens, UniProt O60896+Q16602)
- Construct: host or cells: 1321N1
- ASSAY METHOD TEXT: AM2 receptor inhibition, LANCE TR-FRET cAMP agonist-antagonist competition assay
- Format: cell-based
- EXPERIMENTAL SETUP: inhibition of AM induced cAMP activation; 1321N1 cells transfected with CALCRL+RAMP3; read-out: AM2 pIC50 (converted)
ASSAY ENDPOINT: IC50 (nM)

Worked cases, answers included:
{"columns": ["COMPOUND", "EXPERIMENTAL SYSTEM", "IC50, nM"],
 "data": [
  ["CNCc1ccccc1CN(CC(=O)Nc1ccc2c(c1)C[C@@]1(C2)C(=O)Nc2ncccc21)C(=O)C12CC3CC(CC(C3)C1)C2 [Example 92, 2,2,2-trifluoroacetate]", "AM2 receptor (CALCRL+RAMP3) (Homo sapiens, UniProt O60896+Q16602)", 79.4],
  ["O=C(CN(Cc1ccccc1CN1CCC1)C(=O)c1ccccn1)Nc1ccc2c(c1)CC1(C2)C(=O)Nc2ncccc21 (centres unmarked) [Example 52]", "AM2 receptor (CALCRL+RAMP3) (Homo sapiens, UniProt O60896+Q16602)", 46.8],
  ["CNCc1c(F)cccc1CN(CC(=O)Nc1ccc2c(c1)CC1(C2)C(=O)Nc2ncccc21)C(=O)C(C)(C)C (centres unmarked) [Example 36]", "AM2 receptor (CALCRL+RAMP3) (Homo sapiens, UniProt O60896+Q16602)", 93.3],
  ["CNCc1ccccc1CN(CC(=O)Nc1ccc2c(c1)CC1(C2)C(=O)Nc2ncccc21)C(=O)C1CCN(C(C)=O)C1 (centres unmarked) [Example 74, 2,2,2-trifluoroacetate]", "AM2 receptor (CALCRL+RAMP3) (Homo sapiens, UniProt O60896+Q16602)", 15.5]
]}

1. CC(c1ccccc1CN(CC(=O)Nc1ccc2c(c1)CC1(C2)C(=O)Nc2ncccc21)C(=O)C(C)(C)C)N(C)C (centres unmarked) [Example 24]
2. CNCc1cc(F)c(F)cc1CN(CC(=O)Nc1ccc2c(c1)CC1(C2)C(=O)Nc2ncccc21)C(=O)C(C)(C)C (centres unmarked) [Example 37]
Inquiry: Hey, between 1 and 2 which has a smaller measured IC50? # answer = label of selected item
Reply text: 1
(1: 34.7 nM, 2: 145 nM)

1. CNCc1ccccc1CN(CC(=O)Nc1cc2c(cn1)CC1(C2)C(=O)Nc2ncccc21)C(=O)C(C)(C)C (centres unmarked) [Example 103]
2. CNCc1ccccc1CN(C(=O)C(C)(C)C)[C@@H](C)C(=O)Nc1ccc2c(c1)CC1(C2)C(=O)Nc2ncccc21 (some centres unmarked) [Example 34]
Inquiry: Hey, between 1 and 2 which has a smaller measured IC50? # answer = label of selected item
Reply text: 2
(2: 12.3 nM, 1: 24 nM)

A. CNCc1ccccc1CN(CC(=O)Nc1ccc2c(c1)CC1(C2)C(=O)Nc2ncccc21)C(=O)C1CN(C(C)=O)C1 (centres unmarked) [Example 68]
B. CNCc1ccccc1CN(CC(=O)Nc1ccc2c(c1)CC1(C2)C(=O)Nc2ncccc21)C(=O)C1CCCC1 (centres unmarked) [Example 65]
Inquiry: Which of the two gives a bigger number for IC50: A or B ? # answer = label of selected item
Reply text: A
